# Tested on: Phakopsora pachyrhizi, strain with amino acid substitution F129L in the mitochondrial cytochrome b protein
# experimental protocol: Protective control of soybean rust on soybeans (PHAKPA P6)
# Type: in vivo
# condition set: protective P6, 16 ppm, soybean rust F129L strain
Reported % PHAKPA (F129L) Disease level, P6 at 16 ppm values for the following molecules.
State just the number; it will be interpreted in %.

// known answers, use as guide
CO/N=C(/C(=O)OC)c1cccc(C)c1CO/N=C(\C)c1c(F)ccc(C(F)(F)F)c1F [compound 156] : 3
CO/N=C(/C(=O)OC)c1cccc(C)c1CO/N=C(\C)c1ccccc1F [Ex. 1] : 56
CNC(=O)/C(=N/OC)c1cccc(C)c1CO/N=C(\C)c1cccc(C)c1 [Ex. 77] : 3
CNC(=O)/C(=N/OC)c1cccc(C)c1CO/N=C(\C)c1ccc(Cl)cc1 [Ex. 158] : 0

## Task Indicate its recorded % PHAKPA (F129L) Disease level, P6 at 16 ppm; the molecule in question is CO/N=C(/C(=O)OC)c1cccc(C)c1CO/N=C(\C)c1cccc(OC(F)(F)F)c1 [Ex. 28]
## Result 0

## Task Indicate its recorded % PHAKPA (F129L) Disease level, P6 at 16 ppm; the molecule in question is CNC(=O)/C(=N/OC)c1cccc(C)c1CO/N=C(\C)c1cc(F)ccc1F [Ex. 131]
## Result 0

* * *

# Test system: Phakopsora pachyrhizi, strain with amino acid substitution F129L in the mitochondrial cytochrome b protein
# experimental protocol: Protective control of soybean rust on soybeans (PHAKPA P6)
# Type: in vivo
# condition set: protective P6, 4 ppm, soybean rust F129L strain
reported endpoint: % PHAKPA (F129L) Disease level, P6 at 4 ppm (%)
State just the number; it will be interpreted in %.

CO/N=C(/C(=O)OC)c1cccc(C)c1CO/N=C(\C)c1ccccc1F : 90
CNC(=O)/C(=N/OC)c1cccc(C)c1CO/N=C(\C)c1cc(F)ccc1F : 2
CNC(=O)/C(=N/OC)c1cccc(C)c1CO/N=C(\C)c1cccc(C)c1 : 40
CNC(=O)/C(=N/OC)c1cccc(C)c1CO/N=C(\C)c1ccc(Cl)cc1 : 2

--- query ---
## Task Indicate its recorded % PHAKPA (F129L) Disease level, P6 at 4 ppm; the compound in question is "CO/N=C(/C(=O)OC)c1cccc(C)c1CO/N=C(\C)c1c(F)ccc(C(F)(F)F)c1F"
## Result 47

Origin of measurements: patent US20230172205A1
